Origin of values: the kinase profiling compilation of Christmann-Franck et al. (2016)

Listed below: kinase still bound, per cent of control values for each entry.
- testSystem: HIPK1 (human)
- experimentalProtocol: KINOMEscan competition binding
- studyConditions: compound 10.0 µM

| smilesInput | testSystem | kinase still bound, per cent of control |
| --- | --- | --- |
| CCC(=O)N1CCN(c2ccc(-n3c(=O)ccc4cnc5ccc(-c6cnc7ccccc7c6)cc5c43)cc2C(F)(F)F)CC1 | HIPK1 (human) | 63% |
| COC(=O)Nc1ccc(-c2nc(N3CCOCC3)c3cnn(C4CCN(C(=O)OC)CC4)c3n2)cc1 | HIPK1 (human) | 57% |
| CC(C)n1nc(-c2cc3cc(O)ccc3[nH]2)c2c(N)ncnc21 | HIPK1 (human) | 1.9% |
| COc1ccc(-c2ccc3c(N4CCOCC4)nc(N4C[C@@H](C)O[C@@H](C)C4)nc3n2)cc1CO | HIPK1 (human) | 97% |

---

- testSystem: DAPK1 (human)
- experimentalProtocol: KINOMEscan competition binding
- studyConditions: compound 10.0 µM
resultType: kinase still bound, per cent of control

| smilesInput | testSystem | result |
| --- | --- | --- |
| COC(=O)Nc1ccc(-c2nc(N3CCOCC3)c3cnn(C4CCN(C(=O)OC)CC4)c3n2)cc1 | DAPK1 (human) | 100% |
| CC(C)n1nc(-c2cc3cc(O)ccc3[nH]2)c2c(N)ncnc21 | DAPK1 (human) | 3% |
| CCC(=O)N1CCN(c2ccc(-n3c(=O)ccc4cnc5ccc(-c6cnc7ccccc7c6)cc5c43)cc2C(F)(F)F)CC1 | DAPK1 (human) | 96% |
| COc1ccc(-c2ccc3c(N4CCOCC4)nc(N4C[C@@H](C)O[C@@H](C)C4)nc3n2)cc1CO | DAPK1 (human) | 95% |

---

Form field: kinase still bound, per cent of control (one value per entry).
- testSystem: SRMS (human)
- experimentalProtocol: KINOMEscan competition binding
- studyConditions: compound 10.0 µM
resultType: kinase still bound, per cent of control (%)

| smilesInput | testSystem | quantitativeResult |
| --- | --- | --- |
| COc1ccc(-c2ccc3c(N4CCOCC4)nc(N4C[C@@H](C)O[C@@H](C)C4)nc3n2)cc1CO | SRMS (human) | 98 |
| CC(C)n1nc(-c2cc3cc(O)ccc3[nH]2)c2c(N)ncnc21 | SRMS (human) | 61 |
| CCC(=O)N1CCN(c2ccc(-n3c(=O)ccc4cnc5ccc(-c6cnc7ccccc7c6)cc5c43)cc2C(F)(F)F)CC1 | SRMS (human) | 92 |
| COC(=O)Nc1ccc(-c2nc(N3CCOCC3)c3cnn(C4CCN(C(=O)OC)CC4)c3n2)cc1 | SRMS (human) | 78 |

---

- testSystem: HIPK2 (human)
- experimentalProtocol: KINOMEscan competition binding
- studyConditions: compound 10.0 µM
This listing pairs compounds with measured kinase still bound, per cent of control.
resultType: kinase still bound, per cent of control

| smilesInput | testSystem | result |
| --- | --- | --- |
| COc1ccc(-c2ccc3c(N4CCOCC4)nc(N4C[C@@H](C)O[C@@H](C)C4)nc3n2)cc1CO | HIPK2 (human) | 58% |
| COC(=O)Nc1ccc(-c2nc(N3CCOCC3)c3cnn(C4CCN(C(=O)OC)CC4)c3n2)cc1 | HIPK2 (human) | 65% |
| CC(C)n1nc(-c2cc3cc(O)ccc3[nH]2)c2c(N)ncnc21 | HIPK2 (human) | 0.9% |
| CCC(=O)N1CCN(c2ccc(-n3c(=O)ccc4cnc5ccc(-c6cnc7ccccc7c6)cc5c43)cc2C(F)(F)F)CC1 | HIPK2 (human) | 58% |
